Test system: PC-3 prostate
method summary: NCI tumour cell line growth inhibition, 48 h
Recorded TGI values for a group of compounds are listed next.

Recorded TGI, per entry:
>>> result("S=c1nc(Cc2ccc(Cl)cc2)[nH][nH]1")
"> 100 µM"
>>> result("Cn1cc(C2=C(c3cn(CCO)c4ccccc34)C(=O)NC2=O)c2ccccc21")
"> 25 µM"
>>> result("COc1cc2cc(C(=O)CCC(=O)O)sc2cc1OC")
"> 100 µM"
>>> result("CC(=O)c1c(SCCN2CCCC2)n(-c2ccccc2)c(=S)n(-c2ccccc2)c1=O")
"10.8 µM"

Let us examine a further case.
[in] May I ask what TGI has been recorded for "Cc1c(C#N)c2ccccc2c2nc3ccccc3n12" ?
[out] > 100 µM

====

Recorded TGI values for a group of compounds are listed next.
Tested on: HOP-92 NSCLC
method summary: NCI tumour cell line growth inhibition, 48 h
Number in µM, nothing else.

>>> recorded_number("CCOc1ccc(NC(=O)C2=C(C)NC(C)=C(C(=O)Nc3ccc(OCC)cc3)C2c2ccc(O)c(OC)c2)cc1")
53.9
>>> recorded_number("CCOc1ccc(Nc2nc3c(s2)C(=O)c2ccccc2C3=O)cc1")
27.6
>>> recorded_number("Cc1ccc(O)c(C(c2ccc([N+](=O)[O-])cc2)c2cc(C)ccc2O)c1")
28.7

Let us examine a further case.
[in] May I ask what TGI has been recorded for O=C1C2C(C(=O)[N]1[Hg][c]1cccs1)C1(Cl)C(Cl)=C(Cl)C2(Cl)C1(Cl)Cl (stereo not given) ?
[out] 3.03

====

Tested on: OVCAR-3 ovarian
method summary: NCI tumour cell line growth inhibition, 48 h; in the data active = GI50 below about 0.43 µM; inactive = the rest
Mark one answer only. Choices: TRUE (active), FALSE (inactive)

Observe how each entry below is paired with its result.
>>> assigned_class("COc1cc(C(=O)N2N=C(c3ccc(S(C)(=O)=O)cc3)CC2c2ccco2)cc(OC)c1OC (stereo not given)")
"FALSE"
>>> assigned_class("COc1cccc(C2C3=C(COC3=O)N(CCO)c3cc(OC)ccc32)c1 (stereo not given)")
"TRUE"
>>> assigned_class("C/C=C/C/C=C/CCC(=O)[C@H]1O[C@H]1C(N)=O")
"FALSE"
>>> assigned_class("CN(c1cc2ncc(=O)[nH]c2cc1NC(N)=NCc1ccc(Cl)cc1)C1CCCCC1")
"FALSE"
>>> assigned_class("CCCCCCc1cc2cc(-c3nc4ccccc4[nH]3)c(=Nc3ccccc3C)oc2cc1O")
"FALSE"
>>> assigned_class("Cc1ccc2c(c1)c1nc3cc(C)c(C)cc3nc1n2CCN(C)C")
"FALSE"
>>> assigned_class("C#CCN(Cc1nc2cc(C(F)(F)F)ccc2nc1-c1ccccc1)c1ccc(OC(F)(F)F)cc1")
"FALSE"
>>> assigned_class("O=c1c2ccccc2c(Br)c(Br)c2ccccc12")
"FALSE"

[in] Look up the recorded call for "Cn1ccnc1C(=O)/C=C/c1ccc(C(=O)Nc2ccc(S(F)(F)(F)(F)F)cc2)cc1" in this test.
[out] FALSE

[in] # repeat for "CC(C)(O)C#Cc1ccc(/C=C/C(=O)c2ccccc2)s1"
[out] FALSE

====

Test system: HCT-15 colon
method summary: NCI tumour cell line growth inhibition, 48 h
readout: TGI

>>> result("COc1ccccc1/C=C(\\C#N)C(=O)c1ccccc1")
"> 100 µM"
>>> result("O=C(CCC(=O)Nc1cccc(Cl)c1)CC(=O)c1ccc(F)cc1")
"> 100 µM"
>>> result("CN(C)c1ccc(/C=C(\\NC(=O)c2ccccc2)C(=O)NCC(=O)O)cc1")
"> 100 µM"
>>> result("CN(C)Cc1cc(N=Nc2cccc(Cl)c2)ccc1O")
"20.5 µM"

[in] May I ask what TGI has been recorded for "O=S(=O)(Cc1ccc(Cl)cc1Cl)c1ccc(Cl)cc1" ?
[out] > 100 µM

[in] # repeat for CC(C)CC[C@H](O)[C@@H](C)[C@H]1[C@@H](OC2OC(C)C(O)C(O)C2O)C[C@H]2[C@@H]3CC=C4C[C@@H](O)CC[C@]4(C)[C@H]3[C@@H](O)C[C@]12C (stereo not given in full)
[out] > 100 µM

[in] # repeat for "CCOC(=O)C[C@@H]1C2(C=C[C@@]13CO3)OCC(C)(C)CO2"
[out] > 100 µM

====

System: A498 renal
method summary: NCI tumour cell line growth inhibition, 48 h
Recorded TGI values for a group of compounds are listed next.
Number in µM, nothing else.

Recorded TGI, per entry:
>>> recorded_number("CC(=O)Nc1ccc(/C=C/C(=O)c2ccccc2)cc1")
36.7
>>> recorded_number("CC(=O)N1N=C(c2ccc(Nc3nc(Nc4ccc(Cl)cc4)nc(Nc4ccc(Cl)cc4)n3)cc2)CC1c1ccc([N+](=O)[O-])cc1 (stereo not given)")
19.6

Let us examine a further case.
[in] May I ask what TGI has been recorded for "O=C(C=P(c1ccccc1)(c1ccccc1)c1ccccc1)c1cccc(-c2cccc([N+](=O)[O-])c2)c1" ?
[out] 7.87

====

Tested on: DU-145 prostate
method summary: NCI tumour cell line growth inhibition, 48 h; in the data active means GI50 below about 0.43 µM; inactive means the rest
Mark one answer only. Choices: active, inactive

Observe how each entry below is paired with its result.
>>> assigned_class("COc1cc(-c2nc3sccn3c2-c2ccnc(NCCNS(=O)(=O)c3ccc(Cl)cc3)n2)ccc1F")
"inactive"
>>> assigned_class("COc1ccc2c(c1)=C(C=C1C=CN(O)C=C1)C(=O)N=2")
"inactive"
>>> assigned_class("O=c1c2c3c(sc2n2c(-c4cc(-c5ccccc5)no4)nnc2n1Cc1ccccc1)CCCC3")
"inactive"
>>> assigned_class("N#Cc1cccc(OCc2nc(N)nc(N)c2-c2ccc(Cl)c(Cl)c2)c1")
"inactive"
>>> assigned_class("N#C/C(=N\\Nc1ccc(Cl)cc1)C(=O)Nc1cc(-c2ccccc2)nn1-c1ccccc1")
"inactive"
>>> assigned_class("O=C1CC(c2cccc(O)c2)C2(C(=O)NC(=S)NC2=O)C(c2cccc(O)c2)C1 (stereo not given)")
"inactive"
>>> assigned_class("Cc1cc2cc3cc(C)c(N(C)C)cc3[n+](C)c2cc1N(C)C")
"inactive"
>>> assigned_class("COc1cc2c(cc1OCCCCCOc1cc3c(cc1OC)C(=O)N1CC(F)C[C@H]1C=N3)N=C[C@@H]1CC(F)CN1C2=O (stereo not given in full)")
"active"
>>> assigned_class("Nc1ccccc1-c1ccc([N+](=O)[O-])cc1")
"inactive"

Here's the next entry for you.
[in] Look up the recorded call for "Cc1ccc(NC(=O)Cc2ccc(/C=C/C(=O)c3ncc[nH]3)cc2)cc1" in this test.
[out] inactive

====

Test system: M19-MEL melanoma
method summary: NCI tumour cell line growth inhibition, 48 h
readout: TGI (µM)
Number in µM, nothing else.

[in] May I ask what TGI has been recorded for CCCCCCCCCCCCCCCc1ccc(OCC(O)CO)cc1 (centres undefined) ?
[out] 33.4

[in] # repeat for "CCC[CH2][Sn]([CH2]CCC)([O]C(=O)c1cc(F)ccc1F)[O][Sn]([CH2]CCC)([CH2]CCC)[O]C(=O)c1cc(F)ccc1F"
[out] 0.459

[in] # repeat for "C/C=C/C1=C(Cl)C(=O)[C@@H](Cl)[C@@]1(O)C(=O)OC"
[out] 10.1

====

Recorded TGI values for a group of compounds are listed next.
Test system: NCI/ADR-RES ovarian
method summary: NCI tumour cell line growth inhibition, 48 h

Recorded TGI, per entry:
>>> result("CC(=O)O[C@@]12CO[C@@H]1C[C@H](O)[C@@]1(C)C(=O)[C@H](O)C3=C(C)[C@@H](OC(=O)[C@H](O)[C@@H](NC(=O)OC(C)(C)C)c4ccccc4)C[C@@](O)([C@@H](OC(=O)c4ccccc4)[C@H]21)C3(C)C")
"9.76 µM"
>>> result("Cc1cc2c(cc1Cl)SC(c1ccccc1)C(=O)NS2(=O)=O (stereo unspecified)")
"91.9 µM"
>>> result("CCCCOc1ccc(NC(=O)n2nc(N)c3ccccc32)cc1")
"71.1 µM"
>>> result("Cc1ccc(NC(=O)Cc2ccc(/C=C/C(=O)c3ncc[nH]3)cc2)cc1")
"> 25 µM"

[in] May I ask what TGI has been recorded for "Cc1cc(NCCCNc2ccnc3cc(Cl)ccc23)nc(N2CCN(C)CC2)n1" ?
[out] 61.7 µM

[in] # repeat for C=C(C)C1Cc2c(cc(OC)c3c(=O)c4cccc(O)c4oc23)O1 (stereo unspecified)
[out] > 100 µM

[in] # repeat for "CC(=O)Nc1ccc(N=C2C(c3ccccc3)=C(SC3=C(c4ccccc4)C(=Nc4ccc(NC(C)=O)cc4)c4ccccc43)c3ccccc32)cc1"
[out] 72.9 µM

[in] # repeat for CC(=O)N1N=C(c2ccc(Nc3nc(Nc4ccc(Cl)cc4)nc(Nc4ccc(Cl)cc4)n3)cc2)CC1c1ccc([N+](=O)[O-])cc1 (stereo unspecified)
[out] > 70.4 µM

[in] # repeat for "C/C(=C\c1ccccc1)C(=O)NCc1ccc(C(=O)NCCC(C)C)cc1"
[out] > 100 µM

[in] # repeat for O=C(C[C@H](NC(=O)OCc1ccccc1)C(=O)NC1Cc2ccccc2OC1=O)OCc1ccccc1 (stereo partly specified)
[out] > 100 µM

[in] # repeat for "O=C(Nc1nc(C23CC4CC(CC(C4)C2)C3)cs1)c1c(O)c2ccccc2[nH]c1=O"
[out] > 100 µM

[in] # repeat for "O=C(O)c1cc(=O)[nH]c(SCc2ccccc2)n1"
[out] > 100 µM
